- Tested on: fibroblast L929 cells
- Experiment Description: Cytotoxicity assay by MTT
- Format: cell-based
- Condition Details: Mus musculus, fibroblast L929 cell line, 24 h
Readout Kind: IC50 (µg/mL)
Give a bare numeral; the unit µg/mL is implied.

| Molecule | Unit Text | IC50 |
| --- | --- | --- |
| CC(=O)Nc1ccc(S(=O)(=O)Nc2ccc3c(c2)OC(N)=C(C#N)C3c2ccc(Cl)cc2)cc1 (stereo not drawn) [8b] | µg/mL | 90 |
| CSc1ccc(C2C(C#N)=C(N)Oc3cc(NS(=O)(=O)c4ccccc4)ccc32)cc1 (stereo not drawn) [10b] | µg/mL | 247 |

Task: For COc1ccc(C2C(C#N)=C(N)Oc3cc(NS(=O)(=O)c4ccc(C)cc4)ccc32)cc1 (stereo not drawn) [1b] , what is its reported IC50?
Result: 139
